Target: NK1 (Homo sapiens, UniProt P25103)
Sequence (P25103 whole entry): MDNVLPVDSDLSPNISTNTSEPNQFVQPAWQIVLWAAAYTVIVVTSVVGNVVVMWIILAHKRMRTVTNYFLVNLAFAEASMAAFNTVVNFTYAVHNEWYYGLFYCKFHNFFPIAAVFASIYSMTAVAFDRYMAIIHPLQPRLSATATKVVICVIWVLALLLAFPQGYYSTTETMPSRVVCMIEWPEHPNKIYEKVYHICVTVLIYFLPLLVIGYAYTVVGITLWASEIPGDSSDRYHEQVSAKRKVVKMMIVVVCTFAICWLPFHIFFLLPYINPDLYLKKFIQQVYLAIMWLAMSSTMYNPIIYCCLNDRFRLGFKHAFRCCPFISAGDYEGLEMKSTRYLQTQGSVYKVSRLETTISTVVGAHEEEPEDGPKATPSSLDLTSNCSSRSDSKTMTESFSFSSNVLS
Experiment: Signal transduction (ST), intracellular Ca++ (FLIPR), functional NK1 antagonistic activity
Assay type: cell-based
Details: antagonist, read-out: NK1 pIC50 (converted)
Method: This test evaluates in vitro functional NK1 antagonistic activity. For the measurements of intracellular Ca^++ concentrations the cells were grown on 96-well (black wall/transparent bottom) plates from Costar for 2 days until they reached confluence. […] The cells were preincubated with a concentration range of antagonists for 20 min at RT and Ca^++-signals after addition of the agonists were measured in a Fluorescence Image Plate Reader (FLIPR from Molecular Devices, Crawley, England). […]
# IC50 listing for each entry below
Answer format: numeric, nM implied, no suffix.

Past entries and their recorded results:
molecule: O=C(c1cc(C(F)(F)F)cc(C(F)(F)F)c1)N1CC[C@H](N2CCC3(CC2)CCN(S(=O)(=O)c2c(Cl)cccc2Cl)CC3)C[C@H]1Cc1ccccc1 [Compound 111]
IC50 [nM]: 204

molecule: NC(=O)C1(C(=O)N2CCC3(CC2)CCN([C@H]2CCN(C(=O)c4cc(C(F)(F)F)cc(C(F)(F)F)c4)[C@H](Cc4ccccc4)C2)CC3)CC1 [Compound 14]
IC50 [nM]: 31.6

molecule: Cc1cc(=O)oc(C)c1C(=O)N1CCC2(CC1)CCN([C@H]1CCN(C(=O)c3cc(C(F)(F)F)cc(C(F)(F)F)c3)[C@H](Cc3ccccc3)C1)CC2 [Compound 47]
IC50 [nM]: 66.1

molecule: O=C(c1cc(C(F)(F)F)cc(C(F)(F)F)c1)N1CC[C@H](N2CCC3(CC2)CCN(S(=O)(=O)c2ccccc2Cl)CC3)C[C@H]1Cc1ccccc1 [Compound 106]
IC50 [nM]: 60.3

molecule: Cc1occc1C(=O)N1CCC2(CC1)CCN([C@H]1CCN(C(=O)c3cc(C(F)(F)F)cc(C(F)(F)F)c3)[C@H](Cc3ccccc3)C1)CC2 [Compound 27]
IC50 [nM]: 20.4

Record O=C(Cc1ccc2c(c1)OCO2)N1CCC2(CC1)CCN([C@H]1CCN(C(=O)c3cc(C(F)(F)F)cc(C(F)(F)F)c3)[C@H](Cc3ccccc3)C1)CC2 [Compound 81] , field IC50: 115

Record Cc1noc(C)c1CN1CCC2(CCN([C@@H]3CCN(C(=O)c4cc(C(F)(F)F)cc(C(F)(F)F)c4)[C@H](Cc4ccccc4)C3)CC2)CC1=O [Compound 201] , field IC50: 219

Record O=C(c1ccc(=O)[nH]c1)N1CCC2(CC1)CCN([C@H]1CCN(C(=O)c3cc(C(F)(F)F)cc(C(F)(F)F)c3)[C@H](Cc3ccccc3)C1)CC2 [Compound 57] , field IC50: 151

Record O=C(c1ccc[nH]c1=O)N1CCC2(CC1)CCN([C@H]1CCN(C(=O)c3cc(C(F)(F)F)cc(C(F)(F)F)c3)[C@H](Cc3ccccc3)C1)CC2 [Compound 55] , field IC50: 158

Record O=C(c1cc(C(F)(F)F)cc(C(F)(F)F)c1)N1CC[C@H](N2CCC3(CC2)CCN(S(=O)(=O)c2ccsc2)CC3)C[C@H]1Cc1ccccc1 [Compound 93] , field IC50: 25.7

Record O=C(C1CC1)N1CCC2(CC1)CCN(C1CCN(C(=O)c3cc(Cl)cc(Cl)c3)C(Cc3ccccc3)C1)CC2 (stereo not drawn) [Compound 155] , field IC50: 158

Record O=C(c1cc(C(F)(F)F)cc(C(F)(F)F)c1)N1CC[C@H](N2CCC3(CC2)CCN(S(=O)(=O)C=Cc2ccccc2)CC3)C[C@H]1Cc1ccccc1 [Compound 128] , field IC50: 562

Record O=C(CC1C=CCC1)N1CCC2(CC1)CCN([C@H]1CCN(C(=O)c3cc(C(F)(F)F)cc(C(F)(F)F)c3)[C@H](Cc3ccccc3)C1)CC2 (stereo partly drawn) [Compound 70] , field IC50: 81.3

Record O=C1OC(CC(=O)N2CCC3(CC2)CCN([C@H]2CCN(C(=O)c4cc(C(F)(F)F)cc(C(F)(F)F)c4)[C@H](Cc4ccccc4)C2)CC3)c2ccccc21 (stereo partly drawn) [Compound 82] , field IC50: 46.8

Record O=C(C1CC1)N1CCC2(CC1)CCN([C@H]1CCN(C(=O)c3cc(C(F)(F)F)cc(C(F)(F)F)c3)[C@H](Cc3ccc(F)c(F)c3)C1)CC2 [Compound 136] , field IC50: 17
